experiment: stimulators of insulin release from INS-1E, primary screen, cell-based, 5 mM glucose, NPC library (AID 1117329); conditions: rat INS-1E insulin secretion, at 10 µM, stronger effect = higher value; also: reference of the scale not given here
measure.name: insulin secretion stimulation (%)
# unit: % | format: bare number

NCCNCCNCCN    0.4
O=C(CCCCCCC(=O)Nc1ccccc1)NO    -1.2
CCCCN1CCCC1C(=O)Nc1c(C)cc(C)cc1C (stereo unspecified)    0

Qu. Need insulin secretion stimulation, item CCC=CCC=CCC=CCCCCCCCC(=O)O
Ans. 2.65

Qu. Need insulin secretion stimulation, item COCCOC(=O)C1=C(C)NC(C)=C(C(=O)OC/C=C/c2ccccc2)C1c1cccc([N+](=O)[O-])c1 (stereo unspecified)
Ans. -0.8

Qu. Need insulin secretion stimulation, item COc1cc2c(c(OC)c1OC)-c1ccc(OC)c(=O)cc1[C@@H](NC(C)=O)CC2
Ans. 2.2

* * *

test: reducers of polyQ inclusions in PC12 cells, cell-based, NGF-treated PC12, GFPQ80 (AID 1614); conditions: PC12 NGF-treated GFP-polyQ80 inclusion reduction;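 also: lower means fewer inclusions and 0 means no inclusions at all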
inclusion score by entry:
Number only, no unit.

O=C(O)c1cc([N+](=O)[O-])ccc1NCCCc1ccccc1    2
O=C1CN(/N=C/c2ccc([N+](=O)[O-])o2)C(=O)N1    2
CCCCN1CCCCC1C(=O)Nc1c(C)cccc1C (stereo unspecified)    2
NC(N)=NCCC[C@@H](NC(=O)[C@@H](N)Cc1ccc(O)cc1)C(=O)O    2
CC(=O)N[C@@H]1[C@@H](O)[C@H](O)[C@@H](CO)O[C@H]1O    2

Alright, here's another compound for you.
Qu. Need inclusion score, item O=C(O)c1cc(=O)c2cccc(O)c2[nH]1
Ans. 1

* * *

test system: Hepatitis C virus NS3 helicase; experiment: HCV NS3 helicase inhibitors, primary screen, biochemical, fluorescence polarization, LOPAC1280 library (AID 687035); conditions: Purified HCV NS3 helicase, Cy5-dT15 ssDNA binding fluorescence polarization; stronger effect = higher value; concentration not given here
measure.name: inhibition (%)
# unit: % | format: bare number

Some entries whose results are on file:
CCCC1O[C@@H]2C[C@H]3[C@@H]4CCC5=CC(=O)C=C[C@]5(C)[C@H]4[C@@H](O)C[C@]3(C)[C@]2(C(=O)CO)O1 (some centres not stated)    -5
NCCCNCCSP(=O)(O)O    -3
CC(C)C[C@H]1C(=O)N2CCC[C@H]2[C@]2(O)O[C@](NC(=O)[C@@H]3C=C4c5cccc6[nH]c(Br)c(c56)C[C@H]4N(C)C3)(C(C)C)C(=O)N12    2
CC(=O)Oc1cc(C(C)C)c(OCCN(C)C)cc1C    -6

Qu. State its inhibition on Hepatitis C virus NS3 helicase: COC(=O)C1=C(C)NC(C)=C(C(=O)OC)C1c1ccccc1[N+](=O)[O-]
Ans. -1

Qu. State its inhibition on Hepatitis C virus NS3 helicase: O=C(O)C1=CCNCC1
Ans. -3

Qu. State its inhibition on Hepatitis C virus NS3 helicase: C[C@]12CCC(=O)C=C1CC[C@@H]1[C@@H]2CC[C@@]2(C)[C@H]1CC[C@]2(O)C(=O)CO
Ans. 0

Qu. State its inhibition on Hepatitis C virus NS3 helicase: O=C(/C=C/c1ccc(O)c(O)c1)OCCc1ccccc1
Ans. -2

Qu. State its inhibition on Hepatitis C virus NS3 helicase: CNCCCC1c2ccccc2C=Cc2ccccc21
Ans. -3

Qu. State its inhibition on Hepatitis C virus NS3 helicase: CN(C)c1nc(N(C)C)nc(N(C)C)n1
Ans. 0

Qu. State its inhibition on Hepatitis C virus NS3 helicase: CN1C[C@H](C(=O)N[C@]2(C)O[C@@]3(O)[C@@H]4CCCN4C(=O)[C@H](Cc4ccccc4)N3C2=O)C[C@@H]2c3cccc4[nH]cc(c34)C[C@H]21
Ans. -3

Qu. State its inhibition on Hepatitis C virus NS3 helicase: NC(N)=NCCC[C@H](N)C(=O)O
Ans. -3

Qu. State its inhibition on Hepatitis C virus NS3 helicase: NC1=NCC2c3ccccc3Cc3ccccc3N12 (configuration not stated)
Ans. -2

Qu. State its inhibition on Hepatitis C virus NS3 helicase: O=c1c(O)c(-c2ccc(O)cc2O)oc2cc(O)cc(O)c12
Ans. -4

Qu. State its inhibition on Hepatitis C virus NS3 helicase: O=C(O)CCc1nc(-c2ccccc2)c(-c2ccccc2)o1
Ans. -4

Qu. State its inhibition on Hepatitis C virus NS3 helicase: O=C1NCN(c2ccccc2)C12CCN(CCCC(c1ccc(F)cc1)c1ccc(F)cc1)CC2
Ans. 0

Qu. State its inhibition on Hepatitis C virus NS3 helicase: NC(N)=NC(=O)c1nc(Cl)c(N2CCCCCC2)nc1N
Ans. -5

Qu. State its inhibition on Hepatitis C virus NS3 helicase: O=C(CCCN1CCC(O)(c2ccc(Cl)cc2)CC1)c1ccc(F)cc1
Ans. -3

Qu. State its inhibition on Hepatitis C virus NS3 helicase: C(=C\c1ccccc1)/CN1CCN(C(c2ccccc2)c2ccccc2)CC1
Ans. 1

Qu. State its inhibition on Hepatitis C virus NS3 helicase: COc1cc(Cc2cnc(N)nc2N)cc(OC)c1OC
Ans. 1

Qu. State its inhibition on Hepatitis C virus NS3 helicase: OC(CCN1CCCCC1)(c1ccccc1)C1CC2C=CC1C2 (configuration not stated)
Ans. -3

Qu. State its inhibition on Hepatitis C virus NS3 helicase: N[C@@H](CC(=O)O)C(=O)O
Ans. 0
